Measured values drawn from PubChem BioAssay for this set.

molecular target: Calmodulin-1 (Homo sapiens) (UniProt P0DP23); experiment: CALM1 binders on microarrays, EGTA buffer, profiling panel, biochemical, small-molecule microarray, Cy5-labelled CALM1 (AID 1111); details: Cy5-CALM1 binding fluorescence, higher = more signal;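 note: labelled calmodulin applied in Tris saline Tween buffer holding calcium plus EGTA and DTT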
Listed molecules paired with reported composite z-score

Consider the worked cases shown below.
COCCCNC(=O)[C@]1(CCC(=O)OC(C)(C)C)N=C(c2ccc(OCCCO)cc2)O[C@@H]1c1ccccc1N=[N+]=[N-] | 1.88
CO[C@H]1COC(=O)[C@@H]2CCCN2C(=O)[C@@H](C)COC(=O)CC=C[C@@H]1C | 0.212
C=CC[C@@H]1C=C[C@H](ON=C2c3cc(OC)ccc3O[C@H](c3cccc(OC)c3)[C@H]2O)[C@@H](CO)O1 | -0.569

For the molecule CC1CC/C=C\[C@H]2OC34C=CCN(C(C)C)C(=O)[C@H]3N(CCCO)C(=O)[C@@H]4C2C(=O)O1 (some centres undefined) , give its measured composite z-score value.
-1.04
